# assay info: yeast display, Sf9 membrane polyspecificity reagent, FACS + sequencing; frameworks hold sequencing errors

chain | polyreactivity (PSR sort gate)
QVHLVESGGGLVQAGGSLRLSCAASGGTFLVNAMGWYRQAPGKERELVAAINWSGGGTTYADSVKGRFTISRDNAKNTVYLQMNSLKPEDTAVYYCATGSYTTYGYGYWGQGTQVTVSS | high polyreactivity
QVQLVESGGGLVQAGGSLRLSCAASGRIFGVYAMGWSRQAPGKERELGAGITDRGGRTYYADSVKGRFTISRDNAKNTVYLQMNSLKPEDTAVYYCNAGSLHRRYYYEGDYWGQGTQVTVSS | high polyreactivity

----------
# assay info: yeast display, Sf9 membrane polyspecificity reagent, FACS + sequencing; frameworks hold sequencing errors

chain | polyreactivity (PSR sort gate)
QVQLVESGGVLVQAGGSLRLSCAASGRIFGSYTMGWYRQAPGKERELVAGISRRGGSTYYADSVKGRFTISRDNAKNTVYLQMNSLNPEDTAVYYCAAVSSVFSVRYDYWGQGTQVTVSS | high polyreactivity
QVQLVDSGGGLVQAGGSLRLSCAASGSIFAGYTMGGYRQAPGKEREFVAAISSSGGSTYYADSVKGRFTISRDNAKNTVYLQMNSLKPEDTAVSYCAVRGRISSVSRYGYWGQGTQVTVSS | high polyreactivity
QVQLVESGGGLVQAGGSLRLSCAASGYISYVNAMGWYRQAPGKERELVAAISGRGGSTYYADSVKGRFTISRDNAKNNVYLQMNSLKPEDTAVYYCAADLYYSYYWGQGTQVTVSS | low polyreactivity
QVQLVESGGGLVQAGGSLRLSCAASGSTFNIYVMGWYRQAPGKERELVADITTSGRTYYADSVKGRFTISRDNAKNTVYVQMNSLKPEDTAVYYCADATGTYGRGGYYWGQGTQLTVSS | high polyreactivity
QVQLVESGGGLVQAGGSLRLSCAGSGRTFWANTMGWYIQAPGKEREFVAAISGRDVSTYYADSVKGRFTISRDNAKNTVFLQMNSLKPEDTAVYYCAAQWQYLGHMGYWGQGTQVTVSS | low polyreactivity
QVQLVESGGGLVQAGGSLRLSCAASGFTFSYYGMGWNIQAPRKERELVPALTRSGTNTYYADSVKGRFTISRDNAKNTVYLQMKSLKPEDTAVFYCNADVAWSGYHDWYWSSEDYWGQGTQVTVSS | low polyreactivity
QVQLVESGGGLVQAGGSLRLSCAASGSIFGIYAMGWYRQAPGKERELVAAISWSGGSTYYADSVKGRFTISRDNAKNTVYLQMNSLKPEDTAVYYCNADVQLFGWWYGMDYWGQGTQVTVSS | high polyreactivity
QDQLVESGGGLVQAGGSLRLSCAASGRIFPVYAMGWYRQAPGKERELVATITSRTGRTYYADSVKGRFTISRDNAKITVYLQMNSLKPEDTAVYYCAARGYYSAPGYGYWGQGTQVTVSS | high polyreactivity
QVQLVESGGGLVQAGGSLRISCAASGLTFFRNAIGWYRQATGKERELVATITSTSSTNYADSVKVRFTISRDNSKNTVYLQMNSLKPEDTAVYYCAARTVGRKAGFDYWGQGTQVTVSS | high polyreactivity
QVQLVESGGGLVQAGGSLRLSCAASGRTFKGNAMGWYRQAPGKERELVAAISKSGGRTYYADSVKGRFTISRDNAKNTVYLQMNSLKPEDTAVYYCAAGYYPSSSGDDYWGQGTQVTVSS | high polyreactivity
QVQLVESGGGLVQAGGSLRLSCAASGRIFYRYAMGWYSQAPGKESELVAAITWRGGSTSYPDSVKGRFTISRDNAKNTVYLQMNSLKPEATAVYYCAAAAYGVPWRSYLGVFKSHMDYWGQGTQVTVSS | high polyreactivity
QVQLVESGGGLVLAGGSLRLSCAASGRSFVSNALGWSRQAPGSDRELVARISNGASTDADSVKGRFTISRDNAKKTVYLQINSLKPEDTAVYYSAKTTRRGGVALGEYDYWGQLTQVTVSS | low polyreactivity
QVQLVEKGGGLVQAGGSLRLSCAASGYIFRFYTKRWYRQAPGKERELVASITRSGGSTYYADSVKGRFTFSRENAKNTVYLQKNSLKPEDTAVYYCNARKTVGMDYWGQGTQVTVSS | low polyreactivity
QVQLVESGGGLVQAGGSLRLSCAASGYTAYTYTMGWYRQAPGKVREWVAAMSRRSDSTYADSVKGRFTISRDNAKNTVYLQMNSLKPEDTADYYCAAVRVSYRSLSKSYYWGQGTQVTVSS | high polyreactivity
QVQLVESGGGLVQAGGSLRLSCAASGSIFNRYTMGWYRQAPGKERELVAAISKRGGSTYYADSVKGRFTISRDNAKNTVYLQMNSLKPEDTAVYYCAAAAYHSGKGGGYWGQGTQVTVSS | high polyreactivity
QVQLVESGGGLVQAGGSLRLSCAASGTIFGPNAMGWYRKAPGTERELVAAITLSGGSTYYSDSVKGRFTISRDNAKNTVYLPMNSLKPEDTAVYYCAAGPDYGWRRYDYWGQGTQVTVSW | low polyreactivity
QVQLVESGGRLVQAGGSLRLSCAASGRTFPVYAMGWYRQAPGKERELVAAISWSGGSTYYADSVKGRFTISRDNAKNTVYLQMNSLKPEDTAVYYCAKAYHLGLGYRFDYWGQGTQVTVSS | high polyreactivity
QVQLVESGGGLVQAGGSLRLSCAAYGRTFRTNAMGWYRQAPGKERELVAAISTGGGITNYADSVKGRFTISRDNAKNTVYLQMNSLKPEDTAVYYCNADIYTWFQIGGYQYDYWGQGTQVTVSS | low polyreactivity
QVQLVESGGDLVQAGASLRLSCASSGRTFRHNALGRYRQAPGKERYLVATISNRGGTTYYADSVKGRFTISRDNAKNTVYLQMNSLKPEDTAVYYCAARVGVLGYVRYGYWGQGTQVTVSS | low polyreactivity
QVQLVESGGGLVQAGGSLRLSCAASGRIFRYYAMGWYRQAPGKERELVAAINSGGSTKYADSVKGRFTISRDNAKNTVYLQMNSLTPEDTAVYYCNKDHAFSRYWYGGFDYWGQGTQVTVSS | high polyreactivity
QVQLVESGGGLVQAGGSLRLSCPASGFTFTIYAMGWYRQAPGKERELLATISGRAGRTYYADSVKGRFTISRDNAKNTVYLQMNSLKPEDTAVYDCAARVWYQGYKSMGYWGQGTQVTVSS | high polyreactivity

----------
# assay info: yeast display, Sf9 membrane polyspecificity reagent, FACS + sequencing; frameworks hold sequencing errors
result type: polyreactivity (PSR sort gate)

chain | result
QVQLVESGGGLVQAGGSLRLSCAASGFIFPLYAMGWYRKAPGKERELVAAITWRGDTTSYADSVKGRFTISRDNAKNTVYLQMNSLKPEDTAVYYCAAEFYDWWYYGGGEYWGQGTQVTVSS | high polyreactivity
QVQLVESGGGLVQAGGSLRLSCAASGSILVYYAMGWYRQAPGKERELVAAISSGGSTNYADSVKGRFTISRDNAKNTVYLQMNSLKPEDTAVYYCAKESGWVGAIHYDYWGQGTQVTVSS | low polyreactivity
QVQLVESGGGIVQAGGSLRLSCAASGSIFYPYVMGWYRQAPGKERELVAAITTSVGSTYYADSVKGRFTISRDHAKNTVYLQMNSLKPEDTAVYYCAAKYFGSRRPGRYNYWGQGTQVTVSS | high polyreactivity
QVQLVESGGGLVQAGGSLRLSCAASGSIFPFNAMGWYRQAPGKERELVAAISRRGTGTYYADSVKGRFTISRDNAKNTVYLQMNSLKPEDTAVYYCNAVVRAGHYDYWGQGTQVTVSS | high polyreactivity
QVQLVESGGGLVQAGGSLRLSCAASGSIFNQYAMGWHRQAPGKERELVAAISSDGGRTYYADSVKGRFTISRDNAKNTVYLQMNSLNPEDTAVYYCNKDVRPAYRWYDYWGQDTQVTVSS | low polyreactivity

----------
# assay info: yeast display, Sf9 membrane polyspecificity reagent, FACS + sequencing; frameworks hold sequencing errors

chain | polyreactivity (PSR sort gate)
QVQLVETGGGLVQAGGSLRLSCAASGFIFPIYAMGWYRQATGKERELVAVISGSGGSTYYADSVKGRFTISRDNAKNTVYLQMNSLKPEDTAVYYCAARGRNVAGYKGGYWGQGTQVTVSS | low polyreactivity
QVQLVESGGGLVQAGGSLRLSCAASGIMFSSYAMLWYRQAPGKERELFAAISWSGGSTYYADSVKLRFTISRDNAKNTVYLQMNSLKPEDTAVYYCAAKSHWYKRGYWGQGTQVTVSS | low polyreactivity
QVQLVESGGGLVQAGGSLRLSCAASGSILGLYAMRWYRQATGKERELVASIPSSGSTYYAVSVKGRFTISRDYAKNTVYLQMYSLKPEDTAVYYCAAVGSYYYYIRYDYWGQGTQVTVSS | low polyreactivity
QVQLVESGGGLVQAGGSLRLSCAASGFIFWWYAMGWYRQAPGKERELVASISWSGGSTYYADSVKGRFTISRDNAKNTVYLQMNSLKPEDTAVYYCAASRARTIPGPHTNFNYWGQGTQVTVSS | high polyreactivity
QVQLQESGGGLVQAGGSLRLSCAASGNIYDADIMGWYRQAPGKERELVTSITDGGSTNYADSVKGRFTISRDNAKNTVYLQMNSLKPEDTAVYYSAAIAYADIPTSFDYNSDYSYWGQGTQVTVSS | low polyreactivity
QVQLVESGGGLVQAGGSLRLSCAASGRNFYYYAMGWYRQAPGKERELVATITGGGRTYYADSVKGRFTISRDNAKNTVYLQMHSLHPEDTAVYYCAAQYGGLSYRYDYWGQGTQVTVSS | high polyreactivity
QVQLVESGGGLVQAGGSLRLSCAASGFTFGSYAMGWYRQAPGKERELVAVITRSGRTNYADSVKGRFTISRDTAKNTVYLQMNSLKPEDTAVYYCNADDVDDEVSPELTEMDYWGQGTQVTVSS | low polyreactivity
QVQLVESGGGLVQAGGSLRLSCAASGFTLSSNPMGWNRQEPGKETELVAAISFNSTSTYYADSVKGRFTISRDNAKNTVYLQMKSLNPEDTAVYYCAADVPRVQSEPEYDYWGQGTQVTVSS | low polyreactivity
QVQLVESGGGLVQAGGSLRLICAASGSTFVVNAMGWYRQAPGKERELVAAIRNSGSTTYADSVKGRFTISRDNAKNTVYLQMNSLKPEDTAVYYCATDFSATVTAVQINPYDYWGQGTQVTVSS | low polyreactivity
QVQLVESGGGLVQAGGSLRLSCAASGSNFPHNAMGWYRQAPGKERELVAAITSSGGSTYYADSVKGRFTISRDNAKNTVYLQMNSLKPEDTAVYYCNKGKQRRRYNYWGQGTQVTVSS | high polyreactivity
QVQLVESGGGLVQAGGSLRLSCAASGSIFRYNTKGWYRQATGKERELDAAINWSGGNTYYADSVKGRFTISRDNAKNTVYLQMNSLKPEDTAVYYCAARWPSYVSYRYYTKYDYWGQGTQVTVSS | high polyreactivity
QVQLVESGGGLVQAGGSLRLSCAASGSTFTANAMGWYRQAPGKERELVAAISRSGGSTYYADSVKGRFTISRDNAKNTVYLQMNSLKPEDTAVYYCAADEYYQVSAYDYWGQGTQVTVSS | low polyreactivity
QVQLVESGGGLVQAGGSLRLSCAASGFIFASYAMGWYRQAPGKERELVAAITQSRGITYYADSVKGRFTISRDNAKNTVYLQMNSLKPEDTAGYYCNTPLLKRTSRGRERNYWGQGTQVTVSS | low polyreactivity
QVQLVESGGGLVQAGGSLRLSCAASGSIFWSYAMGWYIQAPGTERELVAAITTDGGTNYADSVKGRFTISLDNAKNTVYLLMKSLKPDDTAVYYCAGDTDPNPQIDYTLTMDYWGQGTEVTVSS | low polyreactivity
QVQLVESGGGLVQAGGSLRLSCAASGSIFSGNAMGWYRQAPGKERELVASINRSGGSTYYADSVKGRFTISRDNAKNTVYLQMNSLKTEDTAVYYCAARRVWLAGYDSWGQGTQVTVSS | low polyreactivity
QVQLVESGGGLVQAGGSLRISCAASGFAFSYYAMGWYRQAPGKEREFVASIDWSGGSTYYADSVKGRFTISRDNAKNTVYLQMNSLKPEDTAVYYCAAELDYFPGYDYWGQGTQVTVSS | low polyreactivity
QVQLVESGGGLVQAGGSLRLSCAASGRIFRKYDMGWYRPAPGKERELVAAISGTGITYYADSVKGRFTISRDNAKNTVYLQMNSLKPEDTAVYYCARGSKPRAWSWAYPSATSIYDYWGQGTQVTVSS | low polyreactivity
QVQLVESGGGLDQAGGSLRLSWAASGFTFVPYAMGWYRQAPGKERNLVARITGGGGNTYYADSVKGRFTISRDNAKNTVYLQMISLKPEDTAVYYCAADYTNWKTCSNEMYYWGQGTQVTVSS | low polyreactivity
QVQLVESGGGLVQAGGRLRLSCADSGRTYRKYAIGWYRQAPGKEMDMVAAISWSGGSTYYANSVKGRFTISRDNAKNTVYLQMNSLKPEDTAVYYCAAVPVHTGSLYWGFTTGYDYWGQGTQVTVSS | low polyreactivity
QVQLVESGGGVVQAGGSLRLSCAASGSTFGWYALGWYRQAPGKERELVAAITSGGSTKYADSVKGRFTISRDNAKNTVVLQMNSLKTEDTAVYYCDTVRGYYSPVLVIGYYWGQGTQVTVSS | high polyreactivity
QVQLVESGGGLVQAGGSLRLSCAASGATFWYNAMRWYREAPGKERELVAAITWTGDGTYYADSVKGRFTISRDNAKNTVYLQMNSLKPEDTAVYYCAAAYFQWSTSIVGLDAWYDYWGQGSQVTVSS | low polyreactivity

Where these numbers come from: the nanobody polyreactivity screen of Harvey et al. (2022)
